Cell viability at 1000 nM (%) values for the compounds below.
System: MRC5 cells
Assay: Cell viability assay in MRC5 cells (MTT)
Conditions: 1000 nM

Guide cases for Cell viability at 1000 nM (%), answers given:
Query: Please look up its Cell viability at 1000 nM (%): COC(=O)c1ccc2c(c1)NC(=O)/C2=C(\Nc1ccc(C(=O)N2CCO2)cc1)c1ccccc1
Result: 106%

Query: Please look up its Cell viability at 1000 nM (%): COC(=O)c1cc2c(cc1C)/C(=C(/Nc1ccc(C(=O)NOCCN3CCC(OC)CC3)cc1)c1ccccc1)C(=O)N2
Result: 59.8%

Query: Please look up its Cell viability at 1000 nM (%): COC(=O)c1ccc2c(c1)NC(=O)/C2=C(\Nc1ccc(C(=O)N(C)OCCN(C)C)c(C)c1)c1ccccc1
Result: 39.2%

Query: Please look up its Cell viability at 1000 nM (%): COC(=O)c1cc2c(cc1C)/C(=C(/Nc1ccc(C(=O)NOCCN3CC[C@H](N(C)C)C3)cc1)c1ccccc1)C(=O)N2
Result: 71.2%

Query: Please look up its Cell viability at 1000 nM (%): COC(=O)c1cc2c(cc1C)/C(=C(/Nc1ccc(C(=O)NOCCCN(C)C)cc1)c1ccccc1)C(=O)N2
Result: 86.4%

Continuing:
Query: Please look up its Cell viability at 1000 nM (%): COC(=O)c1ccc2c(c1)NC(=O)/C2=C(\Nc1ccc(C(=O)NOCCN(C)C)c(F)c1)c1ccccc1
Result: 90.7%

Query: Please look up its Cell viability at 1000 nM (%): COC(=O)c1cc2c(cc1C)/C(=C(/Nc1ccc(C(=O)NOCCN3CCNC(=O)C3)cc1)c1ccccc1)C(=O)N2
Result: 94.0%

Query: Please look up its Cell viability at 1000 nM (%): COC(=O)c1cc2c(cc1C)/C(=C(/Nc1ccc(C(=O)NOCCN3CCN(C)CC3)c(C)c1)c1ccccc1)C(=O)N2
Result: 104.8%

Query: Please look up its Cell viability at 1000 nM (%): COC(=O)c1ccc2c(c1)NC(=O)/C2=C(\Nc1ccc(C(=O)N(CCN(C)C)OC)cc1)c1ccccc1
Result: 67.9%

Query: Please look up its Cell viability at 1000 nM (%): COC(=O)c1ccc2c(c1)NC(=O)/C2=C(\Nc1ccc(S(=O)(=O)N(C)OC)cc1)c1ccccc1
Result: 94.8 (n = 2) %

###

Cell viability at 100 nM (%) values for the molecules below.
Tested on: MRC5 cells
Experiment: Cell viability assay in MRC5 cells (MTT)
Conditions: 100 nM
Kindly provide the numeric value in % only, without the unit symbol.

Query: Please look up its Cell viability at 100 nM (%): COC(=O)c1cc2c(cc1C)/C(=C(/Nc1ccc(C(=O)N(C)OCCN3CC4CC(C3)N4)cc1)c1ccccc1)C(=O)N2 [Example 66]
Result: 102.8

Query: Please look up its Cell viability at 100 nM (%): COC(=O)c1cc2c(cc1C)/C(=C(/Nc1ccc(C(=O)N(C)OCCN3CCN(CCO)CC3)cc1)c1ccccc1)C(=O)N2 [Example 58]
Result: 110.2

Query: Please look up its Cell viability at 100 nM (%): COC(=O)c1cc2c(cc1C)/C(=C(/Nc1ccc(C(=O)N(OC)C3CCN(C)CC3)c(C)c1)c1ccccc1)C(=O)N2 [Example 34]
Result: 114.8

Query: Please look up its Cell viability at 100 nM (%): COC(=O)c1cc2c(cc1C)/C(=C(/Nc1ccc(S(=O)(=O)N(C)OCCN(C)CCO)cc1)c1ccccc1)C(=O)N2 [Example 10]
Result: 105.9

Query: Please look up its Cell viability at 100 nM (%): COC(=O)c1cc2c(cc1C)/C(=C(/Nc1ccc(C(=O)NOCCN3CCN(C)CC3)cc1)c1ccccc1)C(=O)N2 [Example 6]
Result: 98.1

Continuing:
Query: Please look up its Cell viability at 100 nM (%): COC(=O)c1cc2c(cc1C)/C(=C(/Nc1ccc(C(=O)NOCCCN3CCC(OC)CC3)cc1)c1ccccc1)C(=O)N2 [Example 55]
Result: 106.7

Query: Please look up its Cell viability at 100 nM (%): COC(=O)c1ccc2c(c1)NC(=O)/C2=C(\Nc1ccc(C(=O)N2CCO2)cc1)c1ccccc1 [Example 37]
Result: 95.2

Query: Please look up its Cell viability at 100 nM (%): COC(=O)c1ccc2c(c1)NC(=O)/C2=C(\Nc1ccc(C(=O)N(C)OCCN2CCN(C)CC2)c(C)c1)c1ccccc1 [Example 18]
Result: 104.5
